SYSTEM: KRAS WT (Homo sapiens (Human), UniProt P01116)
Sequence (P01116-2 other isoform, or with tags, fused parts or gaps): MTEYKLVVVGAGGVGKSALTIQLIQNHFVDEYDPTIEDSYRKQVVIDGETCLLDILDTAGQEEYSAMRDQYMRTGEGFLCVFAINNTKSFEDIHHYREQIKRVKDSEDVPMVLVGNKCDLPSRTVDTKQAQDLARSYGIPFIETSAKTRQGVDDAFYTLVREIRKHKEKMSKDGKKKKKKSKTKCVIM
METHOD: KRAS WT Biochemical Assay, BODIPY-GDP Exchange TR-FRET (Example 502; 0.06 nM KRAS WT, 15 nM GDP, 300 nM SOS1, 120-minute incubation)
ASSAY_CONDITIONS: read-out: KRas HTRF IC50
Decide using IC50 alone. Strictly below 30 nM: 1.0. Equal to or above 30 nM: 0.0.

COMPOUND: Cc1c(F)c(N)c(F)c(-c2nc3c4c(nc(OC[C@@]56CCCN5C[C@H](F)C6)nc4c2F)N2C[C@H]4CC[C@H](N4)[C@H]2[C@H](C)O3)c1C(F)(F)F
ASSIGNED_CATEGORY: 1.0
--
COMPOUND: CCc1cccc2nc(N)cc(-c3nc4c5c(nc(OC[C@@]67CCCN6C[C@H](F)C7)nc5c3F)N3C[C@H]5CC[C@H](N5)[C@H]3[C@H](C)O4)c12
ASSIGNED_CATEGORY: 0.0
--
COMPOUND: C[C@@H]1Oc2nc(-c3cc(N)c(F)cc3C(F)(F)F)c(F)c3nc(OC[C@]45CCN4CC(F)(F)C5)nc(c23)N2C[C@H]3CC[C@H](N3)[C@@H]12
ASSIGNED_CATEGORY: 0.0
--
COMPOUND: Cc1cc(N)cc(-c2nc3c4c(nc(OC[C@@]56CCCN5C[C@H](F)C6)nc4c2F)N2C[C@H]4CC[C@H](N4)[C@H]2[C@H](C)O3)c1C(F)(F)F
ASSIGNED_CATEGORY: 1.0
--
COMPOUND: Cc1c(F)c(N)cc(-c2nc3c4c(nc(OCC56C[C@@H](F)CN5C[C@H](F)C6)nc4c2F)N2C[C@H]4CC[C@H](N4)[C@H]2[C@H](C)O3)c1C(F)(F)F
ASSIGNED_CATEGORY: 1.0
--
COMPOUND: C[C@@H]1Oc2nc(-c3nc(N)c(F)cc3C(F)(F)F)c(F)c3nc(OC[C@@]45CCCN4CC4(CC4(F)F)C5)nc(c23)N2C[C@H]3CC[C@H](N3)[C@@H]12 (stereo partly shown)
ASSIGNED_CATEGORY: 0.0
--
COMPOUND: Cc1c(F)c(N)cc(-c2nc3c4c(nc(OCC[C@@H]5CC[C@H]6COCCN56)nc4c2F)N2C[C@H]4CC[C@H](N4)[C@H]2[C@H](C)O3)c1C(F)(F)F
ASSIGNED_CATEGORY: 0.0
--
COMPOUND: Cc1c(F)c(N)cc(-c2nc3c4c(nc(OC[C@@]5(CC(F)F)CCCN5C)nc4c2F)N2C[C@H]4CC[C@H](N4)[C@H]2[C@H](C)O3)c1C(F)(F)F (single isomer, unassigned) [150 (isomer 1)]
ASSIGNED_CATEGORY: 1.0
--
COMPOUND: Cc1c(F)c(N)cc(-c2nc3c4c(nc(OC[C@@H]5CC[C@@H]6C[C@@H](C(=O)N(C)C)CCN65)nc4c2F)N2C[C@H]4CC[C@H](N4)[C@H]2[C@H](C)O3)c1C(F)(F)F (single isomer, unassigned) [133 (isomer 1)]
ASSIGNED_CATEGORY: 1.0
--
COMPOUND: Cc1c(F)c(N)cc(-c2nc3c4c(nc(OCC5(CN6CC(F)C6)CC5)nc4c2F)N2C[C@H]4CC[C@H](N4)[C@H]2[C@H](C)O3)c1C(F)(F)F
ASSIGNED_CATEGORY: 1.0

###

Recorded measurements of pIC50, one per entry
SYSTEM: KRAS G12D (Homo sapiens (Human), UniProt P01116, G12D)
Sequence (P01116-2 other isoform, or with tags, fused parts or gaps G12D): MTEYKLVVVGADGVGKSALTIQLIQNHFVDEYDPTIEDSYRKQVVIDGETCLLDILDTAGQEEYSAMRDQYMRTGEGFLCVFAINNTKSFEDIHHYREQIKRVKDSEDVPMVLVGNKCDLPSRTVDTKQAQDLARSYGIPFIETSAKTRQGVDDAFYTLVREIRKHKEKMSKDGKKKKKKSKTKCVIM
METHOD: KRAS G12D LoEnz Biochemical Assay, BODIPY-GDP Exchange TR-FRET (SOS1-mediated nucleotide exchange)
ASSAY_CONDITIONS: read-out: KRas (G12D) GDP HTRF IC50
pIC50: −log10 of the molar value.
PROPERTY_LABEL: pIC50

COMPOUND: C[C@@H]1Oc2nc(-c3nc(N)ccc3C(F)(F)F)c(F)c3nc(OC[C@@]45CCCN4C[C@H](F)C5)nc(c23)N2C[C@H]3CC[C@H](N3)[C@@H]12
SYSTEM: KRAS G12D (Homo sapiens (Human), UniProt P01116, G12D)
PROPERTY_LABEL: pIC50
OBSERVED_MEASUREMENT: 8.48
//
COMPOUND: C#Cc1c(F)ccc2cccc(-c3nc4c5c(ncnc5c3F)N3C[C@H]5CC[C@H](N5)[C@H]3[C@H](C)O4)c12
SYSTEM: KRAS G12D (Homo sapiens (Human), UniProt P01116, G12D)
PROPERTY_LABEL: pIC50
OBSERVED_MEASUREMENT: 6.03
//
COMPOUND: COc1cc2ccccc2c(-c2nc3c4c(nc(OC[C@]56CCN5CC(F)(F)C6)nc4c2F)N2C[C@H]4CC[C@H](N4)[C@H]2[C@H](C)O3)n1
SYSTEM: KRAS G12D (Homo sapiens (Human), UniProt P01116, G12D)
PROPERTY_LABEL: pIC50
OBSERVED_MEASUREMENT: 6.04
//
COMPOUND: CCc1cccc2cc(O)cc(-c3nc4c5c(nc(OC[C@@]67CCCN6C[C@H](F)C7)nc5c3F)N3C[C@H]5CC[C@H](N5)[C@H]3[C@H](C)O4)c12
SYSTEM: KRAS G12D (Homo sapiens (Human), UniProt P01116, G12D)
PROPERTY_LABEL: pIC50
OBSERVED_MEASUREMENT: 10.09
//
COMPOUND: CCc1cccc2nc(N)cc(-c3nc4c5c(nc(OC[C@@]67CCCN6C[C@H](F)C7)nc5c3F)N3C[C@H]5CC[C@H](N5)[C@H]3[C@H](C)O4)c12
SYSTEM: KRAS G12D (Homo sapiens (Human), UniProt P01116, G12D)
PROPERTY_LABEL: pIC50
OBSERVED_MEASUREMENT: 8.18
//
COMPOUND: Cc1cc(N)nc(-c2nc3c4c(nc(OC[C@@]56CCCN5CC5(CC5(F)F)C6)nc4c2F)N2C[C@H]4CC[C@H](N4)[C@H]2CO3)c1C(F)(F)F (some centres unmarked)
SYSTEM: KRAS G12D (Homo sapiens (Human), UniProt P01116, G12D)
PROPERTY_LABEL: pIC50
OBSERVED_MEASUREMENT: 9.33
//
COMPOUND: C[C@@H]1Oc2nc(-c3c(C#N)c(N)c(F)c(F)c3C(F)(F)F)c(F)c3nc(OC[C@@]45CCCN4C[C@H](F)C5)nc(c23)N2C[C@H]3CC[C@H](N3)[C@@H]12
SYSTEM: KRAS G12D (Homo sapiens (Human), UniProt P01116, G12D)
PROPERTY_LABEL: pIC50
OBSERVED_MEASUREMENT: 8.86
//
COMPOUND: Cc1c(F)c(N)cc(-c2nc3c4c(nc(OC[C@H]5CC(F)(F)CN5C)nc4c2F)N2C[C@H]4CC[C@H](N4)[C@H]2[C@H](C)O3)c1C(F)(F)F
SYSTEM: KRAS G12D (Homo sapiens (Human), UniProt P01116, G12D)
PROPERTY_LABEL: pIC50
OBSERVED_MEASUREMENT: 8.64
//
COMPOUND: Cc1c(F)c(N)cc(-c2nc3c4c(nc(OC[C@@]56CCCN5C[C@H](F)C6)nc4c2F)N2C[C@H]4CC[C@H](N4)[C@H]2[C@H](C)O3)c1C=O
SYSTEM: KRAS G12D (Homo sapiens (Human), UniProt P01116, G12D)
PROPERTY_LABEL: pIC50
OBSERVED_MEASUREMENT: 9.51
//
COMPOUND: Cc1c(F)c(N)cc(-c2nc3c4c(nc(OC[C@@H]5CC[C@H]6COCCN65)nc4c2F)N2C[C@H]4CC[C@H](N4)[C@H]2[C@H](C(F)(F)F)O3)c1C(F)(F)F
SYSTEM: KRAS G12D (Homo sapiens (Human), UniProt P01116, G12D)
PROPERTY_LABEL: pIC50
OBSERVED_MEASUREMENT: 9.60
//
COMPOUND: Cc1c(F)c(N)cc(-c2nc3c4c(nc(OCC56CCN5C[C@H](F)C6)nc4c2F)N2C[C@H]4CC[C@H](N4)[C@H]2[C@H](C)O3)c1C(F)(F)F (some centres unmarked)
SYSTEM: KRAS G12D (Homo sapiens (Human), UniProt P01116, G12D)
PROPERTY_LABEL: pIC50
OBSERVED_MEASUREMENT: 10.07
